Test system: Escherichia coli TOP10;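 further: peptides expressed intracellularly from a pBAD plasmid library in pooled LB shake-flask culture, induced with 0.3% L-arabinose, DNA abundance read by NGS, three biological replicates, DESeq2 with apeglm shrinkage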
Test: shrunken log2 fold change of peptide-encoding DNA abundance (4.5 h post-induction vs induction); higher = less antimicrobial activity (less host growth inhibition)
Settings: time post-induction: 4.5 h; library: site-saturation at positions 5, 18, 19, 20
shrunken log2 fold change reference
quantity measured: shrunken log2 fold change

residue codes	tested on	value
RRIRQRPPRLPRPRPRPGHEPRP	Escherichia coli TOP10	0.104
RRIRKRPPRLPRPRPRPWSGPRP	Escherichia coli TOP10	0.104
RRIRHRPPRLPRPRPRPAVQPRP	Escherichia coli TOP10	-0.0994
RRIRNRPPRLPRPRPRPPEPPRP	Escherichia coli TOP10	0.184
RRIRLRPPRLPRPRPRPDTDPRP	Escherichia coli TOP10	0.0475
RRIRGRPPRLPRPRPRPGDKPRP	Escherichia coli TOP10	0.425
RRIRERPPRLPRPRPRPWALPRP	Escherichia coli TOP10	-0.144
RRIRDRPPRLPRPRPRPHDQPRP	Escherichia coli TOP10	-0.0965

This collection of values is drawn from the supplement of paper PMC9112550.
